Experimental protocol: stimulators of insulin release from INS-1E, primary screen, cell-based, 5 mM glucose, NPC library (AID 1117329); also: reference of the scale not given here
Condition notes: rat INS-1E insulin secretion, at 10 µM, stronger effect = higher value
Recorded insulin secretion stimulation values for a group of molecules are listed next.
Property label: insulin secretion stimulation (%)

                                   molecule                 property_label  measured
0                    CNCC(=O)c1ccc(O)c(O)c1  insulin secretion stimulation      -0.7
1                     CCC1(CC)C(=O)C=CNC1=O  insulin secretion stimulation       0.8
2                     CCCCNC(C)(C)[P+](=O)O  insulin secretion stimulation      -2.5
3  CCC1(C2=NCCN2)Cc2ccccc2O1 (stereo not drawn)  insulin secretion stimulation         3
4                    COc1cc(CC#N)cc(OC)c1OC  insulin secretion stimulation       2.2
5                    Cc1cccc(C)c1NC1=NCCCS1  insulin secretion stimulation       3.2
6  C[C@@]12CCCCC[C@@H](Cc3ccc(O)cc31)[C@H]2N  insulin secretion stimulation      11.2
7                        Clc1ccccc1N1CCNCC1  insulin secretion stimulation       5.2

----------
Recorded inhibition values for a group of compounds are listed next.
Target entity: L-lactate dehydrogenase (Plasmodium falciparum (isolate CDC / Honduras)) (UniProt Q27743)
Sequence (Q27743 whole entry, looked up): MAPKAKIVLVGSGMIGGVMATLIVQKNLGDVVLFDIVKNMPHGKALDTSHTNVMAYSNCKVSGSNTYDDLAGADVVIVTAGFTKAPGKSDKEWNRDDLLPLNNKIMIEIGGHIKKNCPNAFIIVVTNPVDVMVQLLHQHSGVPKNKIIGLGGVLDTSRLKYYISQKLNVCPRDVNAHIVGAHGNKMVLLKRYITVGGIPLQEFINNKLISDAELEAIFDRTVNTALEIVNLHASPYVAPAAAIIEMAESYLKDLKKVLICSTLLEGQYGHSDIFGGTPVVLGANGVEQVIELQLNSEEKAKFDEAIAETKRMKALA
Experimental protocol: PfLDH activity inhibition – cell lysate, 3D7 strain, counter-screen for P. falciparum growth inhibition project (AID 2304);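 also: 0% = vehicle and 100% = reference inhibitor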
Condition notes: P. falciparum 3D7 crude extract, LDH APAD/NBT absorbance; at 2 µM; stronger effect = higher value
Property label: inhibition (%)

In [3]: df
Out[3]:
                                   compound  measured
0  CN1CCC(O)(c2ccc(Br)cc2)C(C(O)c2ccc(Br)cc2)C1 (stereo not given)        -5
1  CN(C)c1cccc(NC(=O)NC2N=C(c3ccccc3)c3ccccc3N(CC(=O)N(C)c3ccccc3)C2=O)c1 (stereo not given)         4
2  CCOc1ccc(Br)cc1/C=C/C(=O)Nc1ccc2c(c1)[C@@H]1CC[C@H]2N1C        -2
3  N#Cc1ccc(N(CC(=O)NCCc2ccc(F)cc2)CC2CC2)c2ccccc12        -2
4  COC(=O)c1ccc(CC(C)NCC(O)c2cccc(SC(F)(F)F)c2)cc1 (stereo not given)        -2

----------
Recorded growth inhibition values for a group of molecules are listed next.
Experimental protocol: antimalarial activity against Dd2 strain (AID 2302);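 also: 0% = DMSO untreated growth and 100% = chloroquine plus artemisinin killed control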
Condition notes: P. falciparum Dd2 in RBCs, LDH growth readout, 72 h; at 2 µM; stronger effect = higher value
Property label: growth inhibition (%)

>>> print(df.to_string())
                                   molecule  measured
0  Oc1ccccc1CNCC(O)c1cccc(C(F)(F)F)c1 (stereo not given)        97
1  CC[C@H]1CN2CC[C@H]1C[C@H]2C(O)c1cc(OC)nc2ccccc12 (stereo not given in full)        98
2  O=C(/C=C/c1ccc(Cl)c(Cl)c1)N1CCC(CN2CCC(c3c[nH]c4cc5c(cc34)OCO5)CC2)CC1        75
3  CC[C@H]1CN2CC[C@H]1C[C@H]2[C@H](O)c1cc(-c2ccc(F)cc2C)nc2ccc(OC)cc12       100
4  Oc1ccccc1CN1CCC(CCOC(c2ccccc2)c2ccc(Cl)cc2)CC1 (stereo not given)        99

----------
Experimental protocol: HCT116 colon cancer cell growth inhibition, primary screen, CellTiter-Glo luminescence, NPC library (AID 1117342)
Condition notes: at 20 µM (top of the series)
The source made the active and inactive calls.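 The calls were made as follows: active = compounds that lower survival of HCT116 colon cancer cells in the luminescence readout, no numeric limit stated; inactive = the rest.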
Outcomes: active, inactive

In [3]: df
Out[3]:
                                   compound  class_assignment
0      Cc1ccc(N=CN(C)C=Nc2ccc(C)cc2C)c(C)c1          inactive
1             O=[N+]([O-])c1cc(I)c(O)c(I)c1            active
2  CCC1(c2ccccc2)CCC(=O)NC1=O (stereo unspecified)          inactive
3  CC(Cc1ccc(O)cc1)NCC(O)c1cc(O)cc(O)c1 (stereo unspecified)          inactive
4  CN1C[C@H](CNC(=O)OCc2ccccc2)C[C@@H]2c3cccc4c3c(cn4C)C[C@H]21            active
5                      CCC(C)(C)c1ccc(O)cc1          inactive

----------
Experimental protocol: inhibitors of polyQ protein aggregation (AID 1604)
Condition notes: polyglutamine-induced protein aggregation inhibition assay; stronger effect = higher value; concentration not given here

Compound	inhibition of aggregation (%)
C=CCC1(CC(C)C)C(=O)NC(=O)NC1=O	7.48
ClC1C(Cl)C(Cl)C(Cl)C(Cl)C1Cl (stereo not given)	69.4
CN1C[C@H](CO)C=C2c3cccc4[nH]cc(c34)C[C@H]21	44.9
CNC(C)Cc1ccc2c(c1)OCO2 (stereo not given)	0.68
Clc1ccc(C(OCCN2CCCCC2)c2ccccc2)cc1 (stereo not given)	66.7
CO[C@H]1[C@H](O)[C@H](O[C@H]2CC[C@]3(C)C4CC[C@]5(C)C(C6=CC(=O)OC6)CC[C@]5(O)C4CC[C@@H]3C2)O[C@@H](C)[C@@H]1O (stereo not given in full)	94.4
CO[C@@H]1C[C@@H](C[C@H]2CC[C@H](C)[C@H]([C@@H](C)C(=O)O)O2)O[C@]2(O[C@](C)([C@H]3CC[C@@](C)(C4O[C@@H](C5O[C@@](O)(CO)[C@H](C)C[C@@H]5C)C[C@@H]4C)O3)C[C@H]2C)[C@@H]1C (stereo not given in full)	-0.07
Nc1ccncc1	-27.8
CC(C)(C)NCC(O)c1cc(Cl)c(N)c(Cl)c1 (stereo not given)	29.4
COC(=O)C1=CCCN(C)C1	81.4

----------
Experimental protocol: sensitizers of A549 cells to miR-34 induction, primary screen, imaging, A549 dox-inducible miR-34, nuclei and caspase counts (AID 1347080)
Condition notes: A549 miR-34 inducible, Hoechst nuclei count, 48 h; measured here: total cells without miR-34 induction

Compound	cell count
CN=C1CN(O)C(c2ccccc2)=c2cc(Cl)ccc2=N1	11000
Oc1cc2c(cc1O)C1c3ccccc3CNC1CC2 (stereo not given)	10900
CN(C)[C@@H]1C(=O)C(C(N)=O)=C(O)[C@@]2(O)C(=O)C3=C(O)c4c(O)ccc(Cl)c4[C@@](C)(O)[C@H]3C[C@@H]12	10100
C[N+](C)(C)CCOC(=O)CBr	10100
O=C(CCCN1CCC2(CC1)C(=O)N(Cc1cccc(F)c1)CN2c1ccccc1)c1ccc(F)cc1	1250
Cc1ccc(-n2nccn2)c(C(=O)N2CCN(c3nc4cc(Cl)ccc4o3)CCC2C)c1 (stereo not given)	8330
COP(=S)(OC)Oc1ccc(SC)c(C)c1	10100
C[C@@H]1O[C@@H](O[C@H]2C[C@@H](O)[C@]3(CO)C4C(CC[C@]3(O)C2)[C@@]2(O)CC[C@H](C3=CC(=O)OC3)[C@@]2(C)C[C@H]4O)[C@H](O)[C@H](O)[C@H]1O (stereo not given in full)	364
CC(=O)Nc1cc([As](=O)(O)O)ccc1O	12300
Oc1ccc2c3c1OC1[C@@H](O)CC[C@@]4(O)[C@@H](C2)N(CC2CCC2)CC[C@]314 (stereo not given in full)	13500
CCN1C[C@@]2(COC)C3[C@@H](OC)[C@H]4[C@@H]1[C@@]3(C1C[C@@]3(O)[C@H](OC(=O)c5ccccc5)C1[C@]4(OC(C)=O)[C@@H](O)[C@H]3OC)[C@@H](OC)C[C@H]2O (stereo not given in full)	9900
Ic1cncc(OC[C@@H]2CCN2)c1	10300
C=C/C=C\CC1=C[C@@H](OC(=O)[C@@H]2[C@@H](C=C(C)C)C2(C)C)CC1=O	8520
CCOC(=O)C1(c2ccccc2)CCN(CCC(C#N)(c2ccccc2)c2ccccc2)CC1	4590
O=[N+]([O-])c1ncc[nH]1	9040
C[C@]12CCC(=O)C=C1CCC1C2CC[C@@]2(C)C1CC[C@]2(C)O (stereo not given in full)	2300
CCCCC/C=C\C/C=C\C/C=C\C/C=C\CCCC(=O)NC	6170
NCC(O)c1cc(O)c(O)cc1F (stereo not given)	10200
CC(=O)Nc1ccc(OC[C@](C)(O)C(=O)Nc2ccc([N+](=O)[O-])c(C(F)(F)F)c2)cc1	8100
CN[C@@H](C)[C@@H](O)c1ccccc1	12500

----------
Experimental protocol: stimulators of nuclear beta-catenin in C2C12, primary screen, imaging, WNT3A-conditioned medium, mouse C2C12, NPC library (AID 1117326); also: reference of the scale not given here
Condition notes: stimulation, at 2 µM, stronger effect = higher value
Property label: nuclear beta-catenin stimulation (%)

                                   compound  measured
0  CN1CCc2cc(Cl)c(O)cc2[C@H]2c3ccccc3CC[C@@H]21       2.3
1  O=C(O)c1cc(Oc2ccc(C(F)(F)F)cc2Cl)ccc1[N+](=O)[O-]       0.5
2  CCCC(C)(COC(N)=O)COC(=O)NC(C)C (stereo not given)      -0.6
3  C[N+]1(CCF)[C@@H]2CC[C@H]1CC(OC(=O)C(O)(c1ccccc1)c1ccccc1)C2 (stereo not given in full)       0.7
4  C=C1C[C@@H]2[C@H](CC[C@]3(C)C(=O)CC[C@@H]23)[C@@]2(C)C=CC(=O)C=C12      -0.3
